Data provenance is ChEMBL document CHEMBL3885861.

Attribute: MCV
Species: Rattus norvegicus
Assay: Open TG-GATES - Regimen: Single
Format: toxicity, organism-based, Sprague-Dawley
Set-up: regimen Single, gender Male, age 6 weeks
Conditions: in vivo, po, 0 mg/kg, 9 h, tissue Blood, route gavage, dose level Control

Completed entries (count: 4):
Data request: Give the measured MCV of CC(=O)Oc1ccccc1C(=O)O .
Data returned: 61.1 fL

Data request: Give the measured MCV of NC(=O)N1c2ccccc2C=Cc2ccccc21 [CARBAMAZEPINE] .
Data returned: 61.5 fL

Data request: Give the measured MCV of O=C(O)c1cc(/N=N/c2ccc(S(=O)(=O)Nc3ccccn3)cc2)ccc1O .
Data returned: 63 fL

Data request: Give the measured MCV of NC(=O)N/N=C/c1ccc([N+](=O)[O-])o1 .
Data returned: 67.5 fL

More entries:
Data request: Give the measured MCV of C[C@H](CS)C(=O)N1CCC[C@H]1C(=O)O .
Data returned: 64.5 fL

Data request: Give the measured MCV of Clc1ccccc1CN1CCc2sccc2C1 .
Data returned: 60.5 fL
